# Test System: Tyrosine-protein kinase ABL1 (Homo sapiens)
# Sequence (P00519 whole entry): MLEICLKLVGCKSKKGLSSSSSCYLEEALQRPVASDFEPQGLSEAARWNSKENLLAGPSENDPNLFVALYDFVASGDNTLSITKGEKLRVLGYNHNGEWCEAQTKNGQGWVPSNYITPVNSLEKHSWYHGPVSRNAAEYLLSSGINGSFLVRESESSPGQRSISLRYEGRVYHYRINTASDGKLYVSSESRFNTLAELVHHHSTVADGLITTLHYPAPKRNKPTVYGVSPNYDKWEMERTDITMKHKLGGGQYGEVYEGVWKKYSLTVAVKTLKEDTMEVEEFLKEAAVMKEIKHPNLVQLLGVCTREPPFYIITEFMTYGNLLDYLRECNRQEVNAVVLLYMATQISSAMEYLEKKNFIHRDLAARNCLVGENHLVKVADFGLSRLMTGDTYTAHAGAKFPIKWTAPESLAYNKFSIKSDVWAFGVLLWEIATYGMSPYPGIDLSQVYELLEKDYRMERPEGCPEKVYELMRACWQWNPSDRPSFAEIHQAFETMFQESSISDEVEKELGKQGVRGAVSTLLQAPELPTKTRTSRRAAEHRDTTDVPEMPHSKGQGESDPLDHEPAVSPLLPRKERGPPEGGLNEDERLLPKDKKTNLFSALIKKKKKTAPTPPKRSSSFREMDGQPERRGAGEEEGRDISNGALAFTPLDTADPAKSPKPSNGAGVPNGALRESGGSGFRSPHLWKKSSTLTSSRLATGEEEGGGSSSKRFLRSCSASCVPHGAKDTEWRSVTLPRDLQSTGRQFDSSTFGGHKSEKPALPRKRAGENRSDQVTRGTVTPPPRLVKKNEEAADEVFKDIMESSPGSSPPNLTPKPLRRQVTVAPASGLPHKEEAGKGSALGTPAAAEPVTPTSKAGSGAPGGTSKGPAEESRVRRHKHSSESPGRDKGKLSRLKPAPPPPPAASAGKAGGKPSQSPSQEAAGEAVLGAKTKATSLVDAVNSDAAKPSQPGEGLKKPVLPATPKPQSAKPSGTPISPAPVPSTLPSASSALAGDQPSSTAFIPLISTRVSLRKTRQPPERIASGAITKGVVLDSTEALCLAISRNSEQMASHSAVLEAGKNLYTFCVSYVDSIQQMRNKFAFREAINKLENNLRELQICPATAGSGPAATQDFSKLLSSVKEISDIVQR
Recorded Metric: IC50

Per the record, Nc1nccc(-c2cc3c([nH]2)[C@@H](CCF)CNC3=O)n1 has IC50 of > 4 µM

* * *

# Experiment: Renal clearance in Beagle dog at 5 mg/kg, iv administered as single dose
# Assay type: ADME, organism-based, Canis lupus familiaris, Kidney
# Parameters: dose 5 mg/kg, route intravenous
# Condition Info: in vivo, read-out: CL_renal (converted)
Recorded Metric: CL renal (mL/min/kg)
Field format: number, assumed mL/min/kg, no unit text.

Per the record, Nc1nccc(-c2cc3c([nH]2)[C@@H](CCF)CNC3=O)n1 has CL renal of 6.67
